- EXPERIMENT: Plasma clearance in C57BL/6 mouse at 10 mg/kg, po or 2 mg/kg, iv
- Assay type: ADME, organism-based, C57BL6
MEASUREMENT TYPE: clearance
Please provide the amount together with its unit, number first.

*Q* Using the record for CS(=O)(=O)c1ccc2nc(-c3ccc(-c4ccccc4F)cc3)[nH]c2c1 , report its clearance.
*A* 20 mL/min/kg

====

Target chain: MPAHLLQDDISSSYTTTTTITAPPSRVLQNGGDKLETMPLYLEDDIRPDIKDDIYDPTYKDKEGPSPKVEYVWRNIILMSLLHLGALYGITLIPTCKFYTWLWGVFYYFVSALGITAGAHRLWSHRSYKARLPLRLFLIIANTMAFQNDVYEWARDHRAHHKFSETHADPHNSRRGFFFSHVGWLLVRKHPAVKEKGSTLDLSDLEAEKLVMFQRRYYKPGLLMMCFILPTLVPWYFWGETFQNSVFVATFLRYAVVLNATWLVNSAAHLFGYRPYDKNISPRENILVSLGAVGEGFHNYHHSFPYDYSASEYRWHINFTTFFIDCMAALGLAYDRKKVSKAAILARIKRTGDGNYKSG
Listing of recorded IC50 by entry.
Your answer is read as nM, so omit the unit and give the number.

Please review the entries below; each comes with its answer.
CS(=O)(=O)c1ccc2nc(-c3ccc(-c4ccccc4Cl)cc3)[nH]c2c1; 255
CS(=O)(=O)c1ccc2nc(-c3ccc(-c4ccccn4)cc3)[nH]c2c1; 1760
CS(=O)(=O)c1ccc2nc(-c3ccc(-c4ccccc4F)cc3)[nH]c2c1; 27
CS(=O)(=O)c1ccc2nc(-c3ccc(-c4cccc(O)c4)cc3)[nH]c2c1; 342
CC(C)(C)c1ccc2nc(-c3ccc(-c4ccccc4F)cc3)[nH]c2c1; 731

*Q* Using the record for CS(=O)(=O)c1ccc2nc(-c3ccc(-c4cccc(F)c4)cc3)[nH]c2c1 , report its IC50.
*A* 30

*Q* And CCS(=O)(=O)c1ccc2nc(-c3ccc(-c4ccccc4F)cc3)[nH]c2c1 ?
*A* 1310

====

- EXPERIMENT: Plasma clearance in Beagle dog at 2 mg/kg, po or 0.5 mg/kg, iv
- Type: ADME, organism-based, Canis lupus familiaris
MEASUREMENT TYPE: clearance
Please provide the amount together with its unit, number first.

*Q* Using the record for CS(=O)(=O)c1ccc2nc(-c3ccc(-c4ccccc4F)cc3)[nH]c2c1 , report its clearance.
*A* 26 mL/min/kg

====

- SUBJECT OF TEST: Acyl-CoA (8-3)-desaturase (Homo sapiens, UniProt O60427)
- Sequence (O60427 whole entry): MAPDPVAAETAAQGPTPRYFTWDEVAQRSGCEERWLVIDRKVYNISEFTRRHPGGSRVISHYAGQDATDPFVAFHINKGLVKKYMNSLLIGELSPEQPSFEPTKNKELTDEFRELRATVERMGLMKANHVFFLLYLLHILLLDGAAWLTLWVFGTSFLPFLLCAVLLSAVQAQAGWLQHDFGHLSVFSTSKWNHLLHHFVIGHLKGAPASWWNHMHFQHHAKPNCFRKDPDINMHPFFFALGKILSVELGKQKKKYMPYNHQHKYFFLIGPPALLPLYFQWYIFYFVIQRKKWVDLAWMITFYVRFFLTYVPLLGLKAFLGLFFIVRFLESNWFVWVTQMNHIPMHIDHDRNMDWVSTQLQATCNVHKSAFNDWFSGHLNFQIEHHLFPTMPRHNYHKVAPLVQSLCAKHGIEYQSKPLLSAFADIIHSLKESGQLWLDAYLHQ
- EXPERIMENT: Inhibition of Delta(5) fatty acid desaturase in human HepG2 cells
MEASUREMENT TYPE: IC50

*Q* Using the record for CS(=O)(=O)c1ccc2nc(-c3ccc(-c4ccccc4F)cc3)[nH]c2c1 , report its IC50.
*A* 1320 nM

====

- SUBJECT OF TEST: Acyl-CoA (8-3)-desaturase (Rattus norvegicus, UniProt Q920R3)
- Sequence (Q920R3 whole entry): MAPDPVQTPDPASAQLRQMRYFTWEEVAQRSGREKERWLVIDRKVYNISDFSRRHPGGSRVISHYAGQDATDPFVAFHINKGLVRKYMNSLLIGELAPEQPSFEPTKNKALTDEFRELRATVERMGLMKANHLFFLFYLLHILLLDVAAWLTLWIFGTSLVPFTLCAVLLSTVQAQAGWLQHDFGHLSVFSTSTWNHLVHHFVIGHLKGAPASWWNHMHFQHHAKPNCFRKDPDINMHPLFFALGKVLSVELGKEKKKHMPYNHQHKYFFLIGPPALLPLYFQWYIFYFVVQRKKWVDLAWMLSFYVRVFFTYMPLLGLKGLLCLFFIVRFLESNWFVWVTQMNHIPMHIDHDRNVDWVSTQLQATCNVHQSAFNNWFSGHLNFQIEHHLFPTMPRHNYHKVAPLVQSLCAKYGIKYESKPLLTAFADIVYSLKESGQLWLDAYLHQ
- EXPERIMENT: Inhibition of Delta(5) fatty acid desaturase in freshly isolated rat hepatocytes
- Format: cell-based, Hepatocyte
MEASUREMENT TYPE: IC50 (µM)
Your answer is read as µM, so omit the unit and give the number.

*Q* Any idea what IC50 came out for CS(=O)(=O)c1ccc2nc(-c3ccc(-c4ccccc4F)cc3)[nH]c2c1 on Acyl-CoA (8-3)-desaturase (Rattus norvegicus, UniProt Q920R3)?
*A* 5.17

====

- SUBJECT OF TEST: UniProtKB P07308
- Sequence (P07308 whole entry): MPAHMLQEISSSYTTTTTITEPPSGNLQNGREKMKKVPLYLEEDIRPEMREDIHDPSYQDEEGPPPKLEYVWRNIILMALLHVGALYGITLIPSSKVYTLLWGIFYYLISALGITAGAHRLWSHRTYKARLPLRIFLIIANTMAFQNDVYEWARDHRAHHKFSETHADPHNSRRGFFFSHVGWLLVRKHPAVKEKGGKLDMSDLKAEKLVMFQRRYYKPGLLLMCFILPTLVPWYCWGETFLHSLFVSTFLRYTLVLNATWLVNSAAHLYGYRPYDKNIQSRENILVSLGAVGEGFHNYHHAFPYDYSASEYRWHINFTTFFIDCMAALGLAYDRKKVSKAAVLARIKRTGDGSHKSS
Listing of recorded IC50 by entry.

Please review the entries below; each comes with its answer.
CS(=O)(=O)c1ccc2nc(-c3ccc(-c4cccc(Cl)c4)cc3)[nH]c2c1; 148 nM
CS(=O)(=O)c1ccc2nc(-c3ccc(-c4ccccc4)cc3)[nH]c2c1; 20 nM
CS(=O)(=O)c1ccc2nc(-c3ccc(-c4ccncc4)cc3)[nH]c2c1; 2470 nM
CS(=O)(=O)c1ccc2nc(-c3ccc(-c4ccccc4F)cn3)[nH]c2c1; 227 nM
CC(C)(C)c1ccc2nc(-c3ccc(-c4ccccc4F)cc3)[nH]c2c1; 175 nM

*Q* Using the record for CS(=O)(=O)c1ccc2nc(-c3ccc(-c4cccc(O)c4)cc3)[nH]c2c1 , report its IC50.
*A* 396 nM

====

- SUBJECT OF TEST: Acyl-CoA (8-3)-desaturase (Rattus norvegicus, UniProt Q920R3)
- EXPERIMENT: Inhibition of rat Delta(5) fatty acid desaturase by cell based assay
MEASUREMENT TYPE: IC50

*Q* Using the record for CS(=O)(=O)c1ccc2nc(-c3ccc(-c4ccccc4F)cc3)[nH]c2c1 , report its IC50.
*A* > 50 µM

====

- EXPERIMENT: Volume of distribution at steady state in Beagle dog at 2 mg/kg, po or 0.5 mg/kg, iv
- Type: ADME, organism-based, Canis lupus familiaris
- CONDITION LABEL: in vivo, read-out: Vdss
MEASUREMENT TYPE: Vd (L/kg)
Your answer is read as L/kg, so omit the unit and give the number.

*Q* Using the record for CS(=O)(=O)c1ccc2nc(-c3ccc(-c4ccccc4F)cc3)[nH]c2c1 , report its Vd.
*A* 2

====

- EXPERIMENT: Drug level in high sucrose/fat free diet fed C57BL/6 mouse liver at 100 mg/kg, po after 3 hrs post dose
- Assay type: ADME, organism-based, C57BL6
- Design: dose 100 mg/kg, route oral
- CONDITION LABEL: read-out: Drug uptake
MEASUREMENT TYPE: concentration at 3 h (µM)
Your answer is read as µM, so omit the unit and give the number.

*Q* Using the record for CS(=O)(=O)c1ccc2nc(-c3ccc(-c4ccccc4F)cc3)[nH]c2c1 , report its concentration at 3 h.
*A* 31.9

====

- EXPERIMENT: AUC in Beagle dog plasma at 2 mg/kg, po or 0.5 mg/kg, iv
- Assay type: ADME, organism-based, Canis lupus familiaris
MEASUREMENT TYPE: AUC (µM·h)
Your answer is read as µM·h, so omit the unit and give the number.

*Q* Using the record for CS(=O)(=O)c1ccc2nc(-c3ccc(-c4ccccc4F)cc3)[nH]c2c1 , report its AUC.
*A* 2.4

====

- EXPERIMENT: Volume of distribution at steady state in C57BL/6 mouse at 10 mg/kg, po or 2 mg/kg, iv
- Assay type: ADME, organism-based, C57BL6
- CONDITION LABEL: in vivo, read-out: Vdss
MEASUREMENT TYPE: Vd (L/kg)
Your answer is read as L/kg, so omit the unit and give the number.

*Q* Using the record for CS(=O)(=O)c1ccc2nc(-c3ccc(-c4ccccc4F)cc3)[nH]c2c1 , report its Vd.
*A* 2.9

====

- EXPERIMENT: Drug level in high sucrose/fat free diet fed C57BL/6 mouse plasma at 100 mg/kg, po after 3 hrs post dose
- Format: ADME, organism-based, C57BL6
- Parameters: dose 100 mg/kg, route oral
MEASUREMENT TYPE: concentration at 3 h

*Q* Using the record for CS(=O)(=O)c1ccc2nc(-c3ccc(-c4ccccc4F)cc3)[nH]c2c1 , report its concentration at 3 h.
*A* 13.2 µM

====

- EXPERIMENT: Oral bioavailability in C57BL/6 mouse at 10 mg/kg, po
- Type: ADME, organism-based, C57BL6
- CONDITION LABEL: in vivo
MEASUREMENT TYPE: bioavailability (%)
Your answer is read as %, so omit the unit and give the number.

*Q* Using the record for CS(=O)(=O)c1ccc2nc(-c3ccc(-c4ccccc4F)cc3)[nH]c2c1 , report its bioavailability.
*A* 39

====

- EXPERIMENT: Drug level in high sucrose/fat free diet fed C57BL/6 mouse liver at 30 mg/kg, po after 3 hrs post dose
- Type: ADME, organism-based, C57BL6
- Parameters: dose 30 mg/kg, route oral
- CONDITION LABEL: read-out: Drug uptake
MEASUREMENT TYPE: concentration at 3 h (µM)
Your answer is read as µM, so omit the unit and give the number.

*Q* Using the record for CS(=O)(=O)c1ccc2nc(-c3ccc(-c4ccccc4F)cc3)[nH]c2c1 , report its concentration at 3 h.
*A* 10.1
